B1: library; numbered along this chain (parent)
chain: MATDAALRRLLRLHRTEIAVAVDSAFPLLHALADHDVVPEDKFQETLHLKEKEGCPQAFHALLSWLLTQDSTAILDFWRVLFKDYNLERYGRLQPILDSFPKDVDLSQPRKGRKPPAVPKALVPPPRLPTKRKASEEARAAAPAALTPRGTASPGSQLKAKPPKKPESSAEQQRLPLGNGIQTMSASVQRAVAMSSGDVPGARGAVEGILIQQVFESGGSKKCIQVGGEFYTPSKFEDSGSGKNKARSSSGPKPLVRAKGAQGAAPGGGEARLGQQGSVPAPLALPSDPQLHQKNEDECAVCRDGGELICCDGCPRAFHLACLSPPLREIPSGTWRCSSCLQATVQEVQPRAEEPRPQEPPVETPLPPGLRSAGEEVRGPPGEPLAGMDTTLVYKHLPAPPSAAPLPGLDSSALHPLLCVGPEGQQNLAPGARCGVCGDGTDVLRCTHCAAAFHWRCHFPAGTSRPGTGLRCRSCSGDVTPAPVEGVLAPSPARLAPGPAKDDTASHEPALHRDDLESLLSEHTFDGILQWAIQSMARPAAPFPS

variants of: B1; assay: AIRE transcriptional activation functional score (insulin promoter-GFP; nonsense median 0, synonymous median 1) (normalised score); higher = higher AIRE activity (more reporter activation); conditions: with insulin promoter-GFP reporter in HEK293
Recorded AIRE transcriptional activation functional score determines the group label, using lower segment (below 0.5), middle segment (0.5 to below 0.9), upper segment (0.9 or more)

    variant_identifier  discrete_label
 0               R316N  middle segment
 1               S153A  middle segment
 2               E347F   upper segment
 3               S234R   upper segment
 4               K120C   upper segment
 5               K294H  middle segment
 6               Q172P  middle segment
 7               V348W   upper segment
 8               F100R   lower segment
 9               K259Y   upper segment
10               S107G  middle segment
11               P361H   upper segment
12                D76M   upper segment
13               A540Q  middle segment
14               P315S   upper segment
15                D84V   lower segment
16               P154C  middle segment
17               A399H   upper segment
18                 R9V   lower segment
19               C475R   lower segment
20               L320R   upper segment
21               L516C  middle segment
22               D410I   upper segment
23               A352L   upper segment
24               C449M   lower segment
25                 R8S   lower segment
26               G208F   lower segment
27               A186C   upper segment
28                P39Q   lower segment
29               V199C  middle segment
30                Y90C   lower segment
31               C472P   lower segment
32                Q69E   lower segment
33               A541D   lower segment
34               K164N   upper segment
35                A61V   lower segment
36                S24G   lower segment
37               F459A   lower segment
38               G242Y   upper segment
39               A202L   upper segment
40               A461P   upper segment
41                F43Q   lower segment
42               E423R   lower segment
43               R445C   lower segment
44               P466W   upper segment
45               G462N   upper segment
46               R445I   upper segment
47               S474Q   upper segment
48               G201H   upper segment
49               S187H   upper segment
50               G477A  middle segment
51               A246S  middle segment
52               H319V  middle segment
53               P143D   upper segment
54               Y231N  middle segment
55               K253L  middle segment
56               K243M   upper segment
57               E376G  middle segment
58               E296N   upper segment
59               E137V  middle segment
60               M194C  middle segment
61                S64Q   lower segment
62                P39R   lower segment
63               Q212G   lower segment
64                F26M   lower segment
65               S474P   upper segment
66               F230A  middle segment
67                L81D   lower segment
68                T16R   lower segment
69                A73N   lower segment
70                L11H   lower segment
71               Y231H  middle segment
72               V206N  middle segment
73               D288L   upper segment
74               H319I   lower segment
75               Q358W   upper segment
76               C434A   lower segment
77               A461G   upper segment
78               V487F  middle segment
79               C457F   lower segment
80               L418M   lower segment
81                S24R   lower segment
82               L428K  middle segment
83               G469D  middle segment
